molecular target: H1 receptor (Homo sapiens, UniProt P35367); construct: expressed in transfected cells; host or cells: HEK-293; assay: H1 receptor binding test; conditions: 1 nM [3H]pyrilamine, HEK-293 cell membrane homogenate; read-out: Affinity of the compound for H1 receptor (Ki value, nM) H1
Sequence (P35367 whole entry): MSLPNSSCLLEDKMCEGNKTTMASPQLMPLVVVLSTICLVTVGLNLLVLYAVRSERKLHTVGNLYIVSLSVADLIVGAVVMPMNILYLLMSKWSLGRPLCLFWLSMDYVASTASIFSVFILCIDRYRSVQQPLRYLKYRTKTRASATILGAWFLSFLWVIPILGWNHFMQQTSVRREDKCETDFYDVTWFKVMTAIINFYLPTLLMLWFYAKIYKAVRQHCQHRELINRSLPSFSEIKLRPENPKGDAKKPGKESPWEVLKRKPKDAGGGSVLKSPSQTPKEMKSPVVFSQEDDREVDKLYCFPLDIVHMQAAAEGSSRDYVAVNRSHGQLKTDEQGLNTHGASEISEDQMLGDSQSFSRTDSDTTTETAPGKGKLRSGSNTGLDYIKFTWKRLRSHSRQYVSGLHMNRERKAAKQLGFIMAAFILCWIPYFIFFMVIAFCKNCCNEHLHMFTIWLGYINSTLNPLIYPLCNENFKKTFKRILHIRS
measurement.type: Ki (nM)

Known results for compounds:
O=C(N[C@H]1CC[C@H](CCN2CCN(c3cc(-c4ccc(F)cc4)cc(N4CCOCC4)n3)CC2)CC1)c1ccco1 :: 980
CN(C)C(=O)N[C@H]1CC[C@H](CCN2CCN(c3cc(-c4cccnc4)cc(N4CCOCC4)n3)CC2)CC1 :: 790
O=C(N[C@H]1CC[C@H](CCN2CCN(c3cc(-c4ccc[nH]4)cc(N4CCOCC4)n3)CC2)CC1)c1ccco1 :: 600

(1) CCC(=O)N[C@H]1CC[C@H](CCN2CCN(c3cc(-c4ccc[nH]4)cc(N4CCOCC4)n3)CC2)CC1
(2) CC(=O)N[C@H]1CC[C@H](CCN2CCN(c3cc(-c4ccccc4)cc(N4CCOCC4)n3)CC2)CC1
Query :: Task for the reader: decide whether 1 or 2 has the larger Ki. Answer = label.
Result :: 2

* * *

biological target: H1 receptor (Homo sapiens); construct: expressed in transfected cells; host or cells: HEK-293; assay: H1 receptor binding test; conditions: 1 nM [3H]pyrilamine, HEK-293 cell membrane homogenate; read-out: Affinity of the compound for H1 receptor (Ki value, nM) H1
measurement.type: Ki (nM)

(a) O=C(N[C@H]1CC[C@H](CCN2CCN(c3cc(-c4cccs4)cc(N4CCOCC4)n3)CC2)CC1)c1cccnc1
(b) CN(C)C(=O)N[C@H]1CC[C@H](CCN2CCN(c3cc(-c4ccc(F)cc4)cc(N4CCOCC4)n3)CC2)CC1
Query :: Could you point out whether the larger Ki belongs to a or to b ? Write the label of whichever entry you select.
Result :: a
(a: 740 nM, b: 300 nM)

* * *

target: 5-HT2A receptor (Homo sapiens, UniProt P28223); construct: expressed in transfected cells; host or cells: HEK293; assay: 5-HT2A receptor binding test; settings: [3H]-Ketanserin, 5-HT2A receptor expressed in HEK293 cells; read-out: Affinity of the compound for each receptor (Ki value, nM) 5-HT2A
Sequence (P28223 whole entry): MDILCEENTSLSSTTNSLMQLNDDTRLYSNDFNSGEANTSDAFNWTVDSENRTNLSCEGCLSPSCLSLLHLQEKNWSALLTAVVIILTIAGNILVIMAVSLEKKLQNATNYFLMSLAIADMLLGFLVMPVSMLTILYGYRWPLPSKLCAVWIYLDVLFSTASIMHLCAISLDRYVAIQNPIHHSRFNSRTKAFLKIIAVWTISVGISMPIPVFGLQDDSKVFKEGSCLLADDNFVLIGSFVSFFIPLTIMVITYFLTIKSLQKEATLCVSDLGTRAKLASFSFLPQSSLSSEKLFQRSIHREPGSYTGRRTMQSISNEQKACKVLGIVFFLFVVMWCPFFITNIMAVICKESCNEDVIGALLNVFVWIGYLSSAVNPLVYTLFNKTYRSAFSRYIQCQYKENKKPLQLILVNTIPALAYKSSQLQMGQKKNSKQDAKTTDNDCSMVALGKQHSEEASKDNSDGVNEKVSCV
measurement.type: Ki (nM)

(P) O=C(N[C@H]1CC[C@H](CCN2CCN(c3cc(-c4ccco4)cc(N4CCOCC4)n3)CC2)CC1)N1CCCCC1
(Q) O=C(N[C@H]1CC[C@H](CCN2CCN(c3cc(-c4ccccc4)cc(N4CCOCC4)n3)CC2)CC1)C1CCCCC1
(R) CC(=O)N[C@H]1CC[C@H](CCN2CCN(c3cc(-c4ccccc4)cc(N4CCOCC4)n3)CC2)CC1
(S) CC(C)N(C(=O)N[C@H]1CC[C@H](CCN2CCN(c3cc(-c4cccnc4)cc(N4CCOCC4)n3)CC2)CC1)C(C)C
(T) COc1ccc(-c2cc(N3CCOCC3)nc(N3CCN(CC[C@H]4CC[C@H](NC(=O)N5CCOCC5)CC4)CC3)c2)cc1
Query :: Ranking criterion: Ki, increasing numeric value. Items: as listed above. Your task in answering is to list the labels in the requested order.
Result :: Q, R, P, T, S

(a) CCCN(C)C(=O)N[C@H]1CC[C@H](CCN2CCN(c3cc(-c4ccc(F)cc4)cc(N4CCOCC4)n3)CC2)CC1
(b) O=C(N[C@H]1CC[C@H](CCN2CCN(c3cc(-c4ccccc4)cc(N4CCOCC4)n3)CC2)CC1)C1CC1
Query :: Please let me know which one, a or b , has a lower measured Ki value. Pick one and reply with its label.
Result :: a
(a: 1.3 nM, b: 3.9 nM)

(A) CC(=O)N[C@H]1CC[C@H](CCN2CCN(c3cc(-c4ccco4)cc(N4CCOCC4)n3)CC2)CC1
(B) O=C(N[C@H]1CC[C@H](CCN2CCN(c3cc(-c4ccc[nH]4)cc(N4CCOCC4)n3)CC2)CC1)c1ccco1
Query :: Which of the two gives a bigger number for Ki: A or B ? // respond with label for picked entry
Result :: A

(I) CC(=O)N[C@H]1CC[C@H](CCN2CCN(c3cc(-c4cccs4)cc(N4CCOCC4)n3)CC2)CC1
(II) CN(C)C(=O)N[C@H]1CC[C@H](CCN2CCN(c3cc(-c4cccs4)cc(N4CCOCC4)n3)CC2)CC1
Query :: Response body: label of entry with the larger Ki; valid values I , II . Reply briefly: the label of your chosen item.
Result :: I
